Values compiled from patent US11407760B2.

pIC50: −log10 of the molar value.
propertyName: pIC50

Request: Fetch value of pIC50 on VEGFR-2 kinase (Homo sapiens (Human)) for O=C(Nc1ccc(F)cc1)C1(C(=O)Nc2ccc(Oc3ccnc4cc(OC5CCOCC5)c5c(c34)OCCO5)c(F)c2)CC1 .
Sequence (P35968 20-1356): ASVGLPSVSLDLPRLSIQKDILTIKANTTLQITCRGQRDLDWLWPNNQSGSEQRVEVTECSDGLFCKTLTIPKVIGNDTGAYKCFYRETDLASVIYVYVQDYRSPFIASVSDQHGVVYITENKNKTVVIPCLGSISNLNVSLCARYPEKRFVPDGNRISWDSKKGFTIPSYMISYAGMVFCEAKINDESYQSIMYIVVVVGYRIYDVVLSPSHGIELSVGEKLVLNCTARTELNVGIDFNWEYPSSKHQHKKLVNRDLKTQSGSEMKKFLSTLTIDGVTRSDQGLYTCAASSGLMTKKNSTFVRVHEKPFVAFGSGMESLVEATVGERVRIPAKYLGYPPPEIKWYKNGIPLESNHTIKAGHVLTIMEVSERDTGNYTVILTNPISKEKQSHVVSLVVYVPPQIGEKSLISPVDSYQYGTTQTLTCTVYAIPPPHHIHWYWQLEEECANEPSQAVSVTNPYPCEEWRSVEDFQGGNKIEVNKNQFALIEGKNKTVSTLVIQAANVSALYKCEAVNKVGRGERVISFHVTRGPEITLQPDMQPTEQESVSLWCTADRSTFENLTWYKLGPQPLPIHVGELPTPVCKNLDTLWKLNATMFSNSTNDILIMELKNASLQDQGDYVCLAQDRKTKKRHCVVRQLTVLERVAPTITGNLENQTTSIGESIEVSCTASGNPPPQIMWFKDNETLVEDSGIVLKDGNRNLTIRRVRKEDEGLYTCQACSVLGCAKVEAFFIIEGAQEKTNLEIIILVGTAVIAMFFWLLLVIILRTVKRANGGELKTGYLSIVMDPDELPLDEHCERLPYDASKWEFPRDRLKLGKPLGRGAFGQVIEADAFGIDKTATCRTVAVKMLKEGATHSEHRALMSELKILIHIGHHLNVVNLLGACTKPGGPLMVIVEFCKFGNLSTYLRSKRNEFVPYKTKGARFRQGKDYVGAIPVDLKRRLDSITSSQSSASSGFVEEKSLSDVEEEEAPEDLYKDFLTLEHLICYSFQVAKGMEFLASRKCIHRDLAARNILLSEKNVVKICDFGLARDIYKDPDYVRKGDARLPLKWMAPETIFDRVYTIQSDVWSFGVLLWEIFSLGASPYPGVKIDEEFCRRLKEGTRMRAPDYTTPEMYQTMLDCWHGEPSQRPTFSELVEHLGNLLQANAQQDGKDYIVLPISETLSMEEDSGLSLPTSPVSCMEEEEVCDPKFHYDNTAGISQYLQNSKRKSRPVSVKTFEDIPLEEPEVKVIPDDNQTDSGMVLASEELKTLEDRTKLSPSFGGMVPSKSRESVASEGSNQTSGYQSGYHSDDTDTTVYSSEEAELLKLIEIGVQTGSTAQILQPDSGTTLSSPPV
Response: 6.30 to 7.30

Request: System VEGFR-2 kinase (Homo sapiens (Human)). Read-out pIC50. Item N#CCOc1cc2nccc(Oc3ccc(NC(=O)C4(C(=O)Nc5ccc(F)cc5)CC4)cc3F)c2c2c1OCCO2 . Report value.
Response: 6.30 to 7.30
